# Measurement target: T1, Karyopherin beta2 (Kapβ2), full length, wild type (human, UniProt Q92973-2 1-890)
# T1 construct: mature; Expressed as a GST fusion from pGEX-Tev and purified; Also used here for the Kapβ2 added in the GST pull-downs; also called Transportin
# T1 sequence (looked up): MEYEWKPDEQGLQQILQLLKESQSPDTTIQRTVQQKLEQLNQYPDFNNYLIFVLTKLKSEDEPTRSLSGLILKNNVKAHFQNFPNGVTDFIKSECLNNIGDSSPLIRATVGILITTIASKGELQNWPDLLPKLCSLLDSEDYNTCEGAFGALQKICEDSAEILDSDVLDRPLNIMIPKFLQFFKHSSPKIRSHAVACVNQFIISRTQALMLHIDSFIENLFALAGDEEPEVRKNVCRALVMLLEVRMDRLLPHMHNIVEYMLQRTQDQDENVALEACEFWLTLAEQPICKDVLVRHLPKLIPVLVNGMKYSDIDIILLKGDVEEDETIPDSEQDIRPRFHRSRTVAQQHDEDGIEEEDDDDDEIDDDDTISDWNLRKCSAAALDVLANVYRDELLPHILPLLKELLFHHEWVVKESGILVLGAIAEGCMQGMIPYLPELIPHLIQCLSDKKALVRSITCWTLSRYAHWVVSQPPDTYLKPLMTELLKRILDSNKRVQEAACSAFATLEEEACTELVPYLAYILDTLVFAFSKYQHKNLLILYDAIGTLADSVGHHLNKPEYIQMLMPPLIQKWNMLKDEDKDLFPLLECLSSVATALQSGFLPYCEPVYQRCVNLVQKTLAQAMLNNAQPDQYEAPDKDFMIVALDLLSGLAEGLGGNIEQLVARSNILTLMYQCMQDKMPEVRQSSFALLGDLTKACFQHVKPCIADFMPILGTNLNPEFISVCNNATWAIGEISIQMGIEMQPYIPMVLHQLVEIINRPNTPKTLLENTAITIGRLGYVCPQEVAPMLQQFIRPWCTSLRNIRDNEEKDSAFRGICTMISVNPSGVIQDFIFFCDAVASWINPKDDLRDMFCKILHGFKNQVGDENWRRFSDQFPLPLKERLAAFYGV
# Method summary: competition ITC (control); 154 µM MBP-hnRNP A1-NLS titrated into 12 µM Kapβ2 with MBP-hnRNP A1-NLS R284A/P288A/Y289A as displacement ligand
Reported property: Kd (nM)
Numbers only; they are read as nM.

Sure, the documented Kd for GGSYNDFGNYNNQSSNFGPMKGGNFGGRSSGPYGGGGQYFAKPRNQGGY (other, human, UniProt P09651-2 257-305, looked up, not shown: large carriers, MBP fusion of the NLS peptide; also called MBP-hnRNP A1-NLS; wildtype hnRNP A1-NLS) [MBP-M9NLS(257-305) wild type] is 20
